test system: VCaP cells; test: Cytotoxicity assessment (Cell-titer-glo cell viability), VCaP; conditions: read-out: VCaP (CC50); VCaP cells, 6 days of treatment, Cell-titer-glo, vs DMSO
Parameter Measured: CC50 (nM)
Give bare numbers, in nM.

>  <Compound>
CC1(C)[C@H](NC(=O)c2ccc(N3CCN(C4CC5(CCN(c6ccc7nnn(C8CCC(=O)NC8=O)c(=O)c7c6)CC5)C4)CC3)cc2)C(C)(C)[C@H]1Oc1ccc(C#N)c(Cl)c1 (some centres unmarked) [Example 23]

>  <Tgt>
VCaP cells

>  <Units Of Measure>
nM

>  <CC50>
191

$$$$
>  <Compound>
CC1(C)C(NC(=O)c2ccc(C#CCC3CCN(CC4CCN(C(=O)CNc5ccc6nnn(C7CCC(=O)NC7=O)c(=O)c6c5)CC4)CC3)cc2)C(C)(C)C1Oc1ccc(C#N)c(Cl)c1 (centres unmarked) [Example 118]

>  <Tgt>
VCaP cells

>  <Units Of Measure>
nM

>  <CC50>
17

$$$$
>  <Compound>
CC1(C)[C@H](NC(=O)c2cnc(N3CCN(CC4CCN(c5ccc6nnn(C7CCC(=O)NC7=O)c(=O)c6c5)CC4)CC3)nc2)C(C)(C)[C@H]1Oc1ccc(C#N)c(Cl)c1 (some centres unmarked) [Example 100]

>  <Tgt>
VCaP cells

>  <Units Of Measure>
nM

>  <CC50>
2

$$$$

Now turn to the next compound.
Lookup: Retrieve CC50 measured for CC1(C)[C@H](NC(=O)c2ccc(N3CCN(CC4CCN(CCNC(=O)C5CN(c6ccc7nnn(C8CCC(=O)NC8=O)c(=O)c7c6)C5)CC4)CC3)cc2)C(C)(C)[C@H]1Oc1ccc(C#N)c(Cl)c1 (some centres unmarked) [Example 69] and print it.
Found: 345

---

Task for the reader: assign each of the following compounds its reported log10 CC50.
tested on: LNCaP cells; test: Cytotoxicity assessment (Cell-titer-glo cell viability), LNCaP; details: read-out: LNCAP (CC50); LNCaP cells, 6 days of treatment, Cell-titer-glo, vs DMSO
Each number you see is log10 of CC50, and the unit inside the log is µM.

>  <Compound>
CC1(C)C(NC(=O)c2ccc(-n3cc(CC4CCN(C(=O)CNc5ccc6nnn(C7CCC(=O)NC7=O)c(=O)c6c5)CC4)nn3)cc2)C(C)(C)C1Oc1ccc(C#N)c(Cl)c1 (stereo not shown) [Example 106]

>  <log10 CC50>
-1.16

$$$$
>  <Compound>
CC1(C)[C@H](NC(=O)c2ccc(N3CCN(C4CC5(CCN(c6cccc7nnn(C8CCC(=O)NC8=O)c(=O)c67)CC5)C4)CC3)cc2)C(C)(C)[C@H]1Oc1ccc(C#N)c(Cl)c1 (stereo partly shown) [Example 22]

>  <log10 CC50>
1.13

$$$$
>  <Compound>
CC1(C)C(NC(=O)c2ccc(CCN3CC4CN(C(=O)C5CCN(c6ccc7nnn(C8CCC(=O)NC8=O)c(=O)c7c6)CC5)CC4C3)cc2)C(C)(C)C1Oc1ccc(C#N)c(Cl)c1 (stereo not shown) [Example 93]

>  <log10 CC50>
-1.29

$$$$
>  <Compound>
CC1(C)[C@H](NC(=O)c2ccc(N3CCN(C4CC5(CCN(C(=O)CNc6ccc7nnn(C8CCC(=O)NC8=O)c(=O)c7c6)CC5)C4)CC3)cc2)C(C)(C)[C@H]1Oc1ccc(C#N)c(Cl)c1 (stereo partly shown) [Example 19]

>  <log10 CC50>
-0.68

$$$$
>  <Compound>
CC1(C)C(NC(=O)c2ccc(OCCOCCOCCOCCOCCOCCCCNC(=O)C3CN(c4ccc5nnn(C6CCC(=O)NC6=O)c(=O)c5c4)C3)cc2)C(C)(C)C1Oc1ccc(C#N)c(Cl)c1 (stereo not shown) [Example 16]

>  <log10 CC50>
0.29

$$$$

Give measured log10 CC50 for every item shown.
1. CC1(C)[C@H](NC(=O)c2ccc(N3CCN(C4CC5(CCN(C(=O)C6CN(c7ccc8nnn(C9CCC(=O)NC9=O)c(=O)c8c7)C6)CC5)C4)CC3)cc2)C(C)(C)[C@H]1Oc1ccc(C#N)c(Cl)c1 (stereo partly shown) [Example 21]
2. CC1(C)C(NC(=O)c2ccc(CCN3CC4CN(C(=O)C5CN(c6ccc7nnn(C8CCC(=O)NC8=O)c(=O)c7c6)C5)CC4C3)cc2)C(C)(C)C1Oc1ccc(C#N)c(Cl)c1 (stereo not shown) [Example 94]
3. CC1(C)C(NC(=O)c2ccc(C#CC3CCN(CC4CCN(C(=O)C5CCN(c6ccc7nnn(C8CCC(=O)NC8=O)c(=O)c7c6)CC5)CC4)CC3)cc2)C(C)(C)C1Oc1ccc(C#N)c(Cl)c1 (stereo not shown) [Example 97]
4. CC1(C)[C@H](NC(=O)c2ccc(N3CCN(C4CC5(CCN(C(=O)C6CCN(c7ccc8nnn(C9CCC(=O)NC9=O)c(=O)c8c7)CC6)CC5)C4)CC3)cc2)C(C)(C)[C@H]1Oc1ccc(C#N)c(Cl)c1 (stereo partly shown) [Example 20]
5. CC1(C)C(NC(=O)c2ccc(-n3cc(C4CCN(C(=O)CNc5ccc6nnn(C7CCC(=O)NC7=O)c(=O)c6c5)CC4)nn3)cc2)C(C)(C)C1Oc1ccc(C#N)c(Cl)c1 (stereo not shown) [Example 107]

Found:
-0.51
-0.97
-1.12
-0.75
-1.05
